Target: Adenosine receptor A1 (Homo sapiens)
Sequence (P30542 whole entry): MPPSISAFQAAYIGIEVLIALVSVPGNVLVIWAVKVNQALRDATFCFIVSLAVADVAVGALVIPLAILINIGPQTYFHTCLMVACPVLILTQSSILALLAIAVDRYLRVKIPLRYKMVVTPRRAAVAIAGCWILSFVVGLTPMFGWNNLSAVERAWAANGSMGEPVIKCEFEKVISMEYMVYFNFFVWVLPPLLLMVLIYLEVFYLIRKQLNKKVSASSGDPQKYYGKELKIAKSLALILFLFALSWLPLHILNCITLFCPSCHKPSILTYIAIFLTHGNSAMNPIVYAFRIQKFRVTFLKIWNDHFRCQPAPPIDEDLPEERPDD
Assay: Adenosine Receptor Time-Resolved Fluorescence Resonance Energy Transfer (TRFRET) Binding Assay
For each entry below, report its Ki value.
Quick note: give the figure in nM, leave out the unit.

I'd like to know its Ki. The molecule in question is Cc1ccnc2ccc(-c3sc(NC(=O)N4CC5(COC5)C4)nc3-c3cccc(C#N)c3)cc12 [US20250243194, Example 11]
0.4

What value of Ki has been recorded for this entry: Cn1cc(-c2sc(NC(=O)N3CC4(COC4)C3)nc2-c2cccc(C#N)c2)c2cccnc21 [US20250243194, Example 16]
122

###

Biological target: Adenosine receptor A2b (Homo sapiens)
Sequence (P29275 whole entry): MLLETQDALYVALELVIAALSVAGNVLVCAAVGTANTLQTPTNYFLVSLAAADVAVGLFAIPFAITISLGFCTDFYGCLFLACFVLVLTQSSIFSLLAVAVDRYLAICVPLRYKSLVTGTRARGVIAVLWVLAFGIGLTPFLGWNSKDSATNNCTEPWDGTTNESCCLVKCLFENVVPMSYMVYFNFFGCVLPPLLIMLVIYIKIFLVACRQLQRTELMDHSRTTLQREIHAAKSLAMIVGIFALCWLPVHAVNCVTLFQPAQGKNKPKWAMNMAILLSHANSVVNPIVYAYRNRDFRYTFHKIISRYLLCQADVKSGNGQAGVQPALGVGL
measurement name: pKi
The scale used: pKi is minus the common logarithm of the concentration in molar units.

What does the data say about its pKi? Entry: COc1ncnc2ccc(-c3sc(NC(=O)N4CC5(COC5)C4)nc3-c3cccc(C#N)c3)cc12 [US20250243194, Example 12]
9.10

Which value of pKi has been reported for Cc1ncnc2ccc(-c3sc(NC(=O)N4CCNCC4)nc3-c3cccc(C#N)c3)cc12 [US20250243194, Example 7.21] in the records?
8.80

Any idea what pKi was measured for Cn1cc(-c2sc(NC(=O)N3CC4(COC4)C3)nc2-c2cccc(C#N)c2)c2cccnc21 [US20250243194, Example 16] ?
8.01

###

# Adenosine receptor A2a (Homo sapiens, UniProt P29274): Ki values follow
# Sequence (P29274 whole entry): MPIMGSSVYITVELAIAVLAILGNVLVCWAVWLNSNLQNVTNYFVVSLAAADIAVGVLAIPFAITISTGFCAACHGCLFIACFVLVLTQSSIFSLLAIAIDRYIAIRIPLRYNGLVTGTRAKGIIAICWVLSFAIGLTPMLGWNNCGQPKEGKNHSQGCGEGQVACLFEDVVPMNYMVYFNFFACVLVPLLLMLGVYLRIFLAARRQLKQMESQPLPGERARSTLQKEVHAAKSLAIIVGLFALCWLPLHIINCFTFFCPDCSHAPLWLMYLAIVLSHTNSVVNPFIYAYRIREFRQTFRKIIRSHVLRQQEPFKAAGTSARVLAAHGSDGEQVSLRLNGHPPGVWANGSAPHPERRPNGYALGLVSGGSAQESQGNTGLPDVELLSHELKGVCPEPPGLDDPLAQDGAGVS
State just the number; it will be interpreted in nM.

// query Ki value for entry COc1ncnc2ccc(-c3sc(NC(=O)N4CC5(COC5)C4)nc3-c3cccc(C#N)c3)cc12 [US20250243194, Example 12]
0.17

Fill in: Ki of Cc1ncnc2ccc(-c3sc(NC(=O)N4CCC(N(C)C)CC4)nc3-c3cccc(C#N)c3)cc12 [US20250243194, Example 7.6] is ___
0.55

Suppose we examine the molecule Cc1ncnc2ccc(-c3sc(NC(=O)N4CCNCC4)nc3-c3cccc(C#N)c3)cc12 [US20250243194, Example 7.21] ; what Ki value has been reported?
0.3

Ki lookup needed for Cc1ccnc2ccc(-c3sc(NC(=O)N4CC5(COC5)C4)nc3-c3cccc(C#N)c3)cc12 [US20250243194, Example 11] , thanks.
0.04
